Target: T1, 4H3449-AA
T1 chain: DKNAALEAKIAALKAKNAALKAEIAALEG
Assay: two-hybrid library CCmax;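 also: natural log of median RNA to DNA barcode read ratio; higher means stronger binding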
Conditions: mean of both orientations
PROPERTY NAME: interaction score

# BINDER, PROPERTY NAME, MEASURED NUMBER
records = [
    ("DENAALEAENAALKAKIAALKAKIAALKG [4H1262-AA]", "interaction score", -0.766),
    ("DKIAALKAKNAALEAENAALEAEIAALEG [4H2961-AA]", "interaction score", -1.67),
    ("DEIAALEAKIAALKAENAALEAKIAALEG [4H341-AA]", "interaction score", 0.461),
]

I = DKNAALEAEIAALEAENAALEAKIAALKG [4H3094-AA]
II = DENAALKAEIAALEAKNAALKAEIAALEG [4H1593-AA]
Prompt: Endpoint returns the identifier whose interaction score is numerically larger, either I or II . Record your answer as the label of the chosen record.
Response: I
(I: 2.52, II: -1.62)

a = DKIAALKAEIAALEAKIAALKAENAALKG [4H2604-AA]
b = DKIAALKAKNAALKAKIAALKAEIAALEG [4H3049-AA]
Prompt: I need your help: which of the pair a , b has higher interaction score? Choose, then provide that item's label.
Response: a
